# collection of Ki values tested on Matrix metalloproteinase-9 (Homo sapiens, UniProt P14780)
# Sequence (P14780 whole entry): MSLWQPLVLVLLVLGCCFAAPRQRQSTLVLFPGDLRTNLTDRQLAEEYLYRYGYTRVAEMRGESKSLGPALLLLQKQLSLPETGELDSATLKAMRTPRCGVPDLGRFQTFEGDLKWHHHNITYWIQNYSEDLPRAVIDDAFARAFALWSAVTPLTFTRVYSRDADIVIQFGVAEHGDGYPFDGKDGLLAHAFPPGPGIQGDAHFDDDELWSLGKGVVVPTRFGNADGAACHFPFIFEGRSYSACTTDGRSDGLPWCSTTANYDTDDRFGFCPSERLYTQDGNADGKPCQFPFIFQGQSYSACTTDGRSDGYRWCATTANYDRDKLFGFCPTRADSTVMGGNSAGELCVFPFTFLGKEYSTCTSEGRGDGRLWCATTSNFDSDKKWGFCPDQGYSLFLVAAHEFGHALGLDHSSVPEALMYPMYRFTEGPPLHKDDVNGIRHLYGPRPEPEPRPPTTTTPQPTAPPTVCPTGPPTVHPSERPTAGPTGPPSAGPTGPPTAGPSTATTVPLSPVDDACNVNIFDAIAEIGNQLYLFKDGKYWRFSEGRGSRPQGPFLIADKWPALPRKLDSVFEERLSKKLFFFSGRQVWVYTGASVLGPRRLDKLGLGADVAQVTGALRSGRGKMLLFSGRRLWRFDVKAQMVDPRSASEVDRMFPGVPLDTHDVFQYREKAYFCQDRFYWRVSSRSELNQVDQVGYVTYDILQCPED
// note: answer is a bare numeric in µM

Look over these answered cases.
INSERT INTO assay_data (chemical_structure, numeric_result) VALUES
  ('CNC(=O)CC[C@@H](N[C@@H](CCc1ccccc1)C(=O)N[C@@H](CCCCNC(C)=O)C(=O)NC)C(=O)O', 0.404),
  ('CNC(=O)[C@@H]1CCCCNC(=O)CC[C@H](C(=O)O)N[C@@H](CCc2ccccc2)C(=O)N1', 6.6);

Here's the next entry for you.
Requested read-out: Ki. Entry: `CNC(=O)[C@@H]1CCCCNC(=O)C[C@H](C(=O)O)N[C@@H](CCc2ccccc2)C(=O)N1`
9.8
